B1: Transcription cofactor vestigial-like protein 4 (Homo sapiens), Q14135 (parent)
chain: METPLDVLSRAASLVHADDEKREAALRGEPRIQTLPVASALSSHRTGPPPISPSKRKFSMEPGDEDLDCDNDHVSKMSRIFNPHLNKTANGDCRRDPRERSRSPIERAVAPTMSLHGSHLYTSLPSLGLEQPLALTKNSLDASRPAGLSPTLTPGERQQNRPSVITCASAGARNCNLSHCPIAHSGCAAPGPASYRRPPSAATTCDPVVEEHFRRSLGKNYKEPEPAPNSVSITGSVDDHFAKALGDTWLQIKAAKDGASSSPESASRRGQPASPSAHMVSHSHSPSVVS

- Variants of: B1
- Cond: with tead4_human TEAD4, Q15561
- Sequence (Q15561 whole entry): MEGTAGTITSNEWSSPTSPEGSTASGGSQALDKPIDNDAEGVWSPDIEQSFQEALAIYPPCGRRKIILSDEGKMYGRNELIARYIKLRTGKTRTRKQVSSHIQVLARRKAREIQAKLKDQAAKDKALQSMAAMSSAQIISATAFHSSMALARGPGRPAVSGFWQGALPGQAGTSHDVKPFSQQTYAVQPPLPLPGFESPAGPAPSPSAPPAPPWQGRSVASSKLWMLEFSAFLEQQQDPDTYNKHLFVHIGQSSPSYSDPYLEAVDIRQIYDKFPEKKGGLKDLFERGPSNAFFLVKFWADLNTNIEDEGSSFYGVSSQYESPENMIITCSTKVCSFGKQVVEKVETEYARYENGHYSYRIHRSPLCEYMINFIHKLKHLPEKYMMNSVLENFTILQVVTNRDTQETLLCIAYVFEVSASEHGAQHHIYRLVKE
Value Kind: effect of a mutation on the interaction

>>> test_value("H240A")
"decreasing interaction"
>>> test_value("L245A")
"decreasing interaction"
>>> test_value("H240A;F241A")
"decreasing interaction"
